Target desc: Grb2 SH2 (UniProt P62993)
Sequence (P62993 whole entry, looked up): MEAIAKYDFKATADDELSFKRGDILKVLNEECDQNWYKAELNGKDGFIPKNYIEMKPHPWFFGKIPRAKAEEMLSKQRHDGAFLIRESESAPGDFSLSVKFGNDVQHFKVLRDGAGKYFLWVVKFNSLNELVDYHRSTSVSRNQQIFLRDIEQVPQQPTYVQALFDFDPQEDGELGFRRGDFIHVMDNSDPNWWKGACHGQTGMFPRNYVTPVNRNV
Test description: SH2 binding enrichment of the phosphorylated peptide, bacterial display (enrichment ratio); higher = better substrate or ligand; peptides without Tyr show the background
Assay metric: SH2 binding enrichment
Give bare numbers.

(Q) If you can, please state the reported SH2 binding enrichment value of GQDLLYEDEDL [PACS1_Y303_F302L] .
(A) 0.8

(Q) Fill in: SH2 binding enrichment of CNRADYSKLAP [GNE_Y22] is ___
(A) 0.793

Field: next sequence
(Q) Which SH2 binding enrichment value is on record for KSPDSYQKILL [ATM_Y1415] ?
(A) 0.805

----------
Answer each item with its documented phosphorylation enrichment.
Target desc: FGFR3 (UniProt P22607)
Sequence (P22607 whole entry, looked up): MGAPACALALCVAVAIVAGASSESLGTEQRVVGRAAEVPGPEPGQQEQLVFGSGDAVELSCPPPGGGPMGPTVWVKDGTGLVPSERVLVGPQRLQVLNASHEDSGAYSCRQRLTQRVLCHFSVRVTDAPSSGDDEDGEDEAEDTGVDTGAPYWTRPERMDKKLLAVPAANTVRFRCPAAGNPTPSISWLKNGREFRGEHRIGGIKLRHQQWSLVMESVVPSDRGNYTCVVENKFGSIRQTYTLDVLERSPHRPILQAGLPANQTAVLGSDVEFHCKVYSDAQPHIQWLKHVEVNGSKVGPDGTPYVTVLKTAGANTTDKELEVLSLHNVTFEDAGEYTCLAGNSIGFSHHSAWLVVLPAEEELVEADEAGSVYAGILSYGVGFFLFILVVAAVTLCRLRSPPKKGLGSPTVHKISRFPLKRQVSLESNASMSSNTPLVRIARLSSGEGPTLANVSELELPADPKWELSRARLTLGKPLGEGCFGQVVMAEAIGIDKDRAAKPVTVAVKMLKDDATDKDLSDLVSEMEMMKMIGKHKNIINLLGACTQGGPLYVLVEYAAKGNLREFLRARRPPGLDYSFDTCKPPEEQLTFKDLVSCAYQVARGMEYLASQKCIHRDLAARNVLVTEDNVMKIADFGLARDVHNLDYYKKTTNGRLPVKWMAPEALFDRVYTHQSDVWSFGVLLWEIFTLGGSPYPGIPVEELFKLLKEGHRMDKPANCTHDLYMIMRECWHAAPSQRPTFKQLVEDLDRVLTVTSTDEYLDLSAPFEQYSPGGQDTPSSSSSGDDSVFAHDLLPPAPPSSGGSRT
Test description: phosphorylation enrichment, bacterial display (enrichment ratio); higher = better substrate or ligand; peptides without Tyr show the background
Numbers only.

The examples below pair each entry with its known result.
(Q) # lookup: phosphorylation enrichment of FVTSMYNEILM [TRPV1_Y310]
(A) 0.932

(Q) Would you kindly share the measured phosphorylation enrichment for RRSQSYIPTSG [PLEKHA2_Y185] ?
(A) 0.455

(Q) Tell me the measured phosphorylation enrichment of EERNPYYSSAR [MCCC2_Y520_G517R] , please.
(A) 0.552

The following sequences each have a reported value; give each one's phosphorylation enrichment.
1. ITLPIYTKGSE [ANK2_Y1455_E1458G]
2. GADDSYFTVRS [ZAP70_Y492_A495V_YF]
3. APQFTYAQGGQ [FLNA_Y1763_YF]
4. REVVNYVQKRN [RMI1_Y450]
5. ADARMYGDLPW [PLP1_Y207_V209D]

(A)
[0.502, 2.62, 0.628, 0.521, 0.7]

----------
Target desc: Fyn (UniProt P06241)
Sequence (P06241 whole entry, looked up): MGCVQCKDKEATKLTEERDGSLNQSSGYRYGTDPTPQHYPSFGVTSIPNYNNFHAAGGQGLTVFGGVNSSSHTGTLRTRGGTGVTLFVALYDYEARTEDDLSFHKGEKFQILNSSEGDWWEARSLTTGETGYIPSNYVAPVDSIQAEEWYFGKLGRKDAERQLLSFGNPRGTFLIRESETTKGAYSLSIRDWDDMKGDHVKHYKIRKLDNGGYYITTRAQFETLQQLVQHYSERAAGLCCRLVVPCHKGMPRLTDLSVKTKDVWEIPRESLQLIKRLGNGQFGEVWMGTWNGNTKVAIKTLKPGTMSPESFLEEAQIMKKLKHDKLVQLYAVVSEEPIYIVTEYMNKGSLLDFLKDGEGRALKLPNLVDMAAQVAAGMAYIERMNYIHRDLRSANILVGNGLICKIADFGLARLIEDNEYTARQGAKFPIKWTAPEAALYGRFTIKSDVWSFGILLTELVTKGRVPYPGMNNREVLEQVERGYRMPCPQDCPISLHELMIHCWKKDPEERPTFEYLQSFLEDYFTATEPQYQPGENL
Test description: phosphorylation enrichment, bacterial display (enrichment ratio); higher = better substrate or ligand; peptides without Tyr show the background
Assay metric: phosphorylation enrichment
Numbers only.

(Q) Which phosphorylation enrichment is reported for this sequence? LKRCQYVTEKV [ALDOA_Y204]
(A) 0.823

(Q) phosphorylation enrichment for HFVDEYDLTIE [KRAS_Y32_P34L] ?
(A) 0.811

(Q) Would you mind telling me what phosphorylation enrichment value was observed for LIYTNYEVGKD [GSTP1_Y112_A114V] ?
(A) 11.9

(Q) phosphorylation enrichment lookup needed for ETKTPYTVILI [SBDS_Y128_R126T] , thanks.
(A) 0.483

(Q) Quick one: phosphorylation enrichment for PMQLPHDSTWE [PDGFRB_Y589_Y589H] ?
(A) 0.582

Now for the sequence whose phosphorylation enrichment we want.
(Q) I'd like to know its phosphorylation enrichment. The sequence in question is EVLKNYNQQKD [GOLGA4_Y1551]
(A) 0.443

----------
Hi there, I'd appreciate the recorded phosphorylation enrichment for every entry that follows.
Target desc: FGFR3 (UniProt P22607)
Test description: phosphorylation enrichment, bacterial display (enrichment ratio); higher = better substrate or ligand; peptides without Tyr show the background

A selection of reference data follows.
(Q) Find the recorded phosphorylation enrichment belonging to YKTPIYPYLLP [PLD2_Y578_T577I] and report it.
(A) 1.53

(Q) For the sequence shown here, GGDQPYSGAGD [TYRO3_Y828_R824G] , give the reported phosphorylation enrichment.
(A) 0.698

(Q) Fill blank: measured phosphorylation enrichment of the sequence VIERSYTSADG [DHCR7_Y382_C380R] is ____.
(A) 0.466

Then this sequence:
(Q) # query: phosphorylation enrichment of entry QWRTKYEMDAI [MYH7_Y1375_T1377M]
(A) 0.843
